- Condition Details: rat; liver microsomes; pH 7.4; 15.0 min; 1.0 µM
Classes are defined on half-life with ranges low: < 3 min; medium: ≥ 3 min and < 8 min; high: ≥ 8 min

q: Lab note: sort "NC(=O)C1CCN(c2ncc(-c3ccc4c(c3)OCCO4)s2)CC1" into the matching half-life band.
a: medium

q: Form: Item = "O=c1c(-c2cccs2)ccc2n1C[C@H]1C[C@@H]2CN(C2CCOCC2)C1" ; Class = ?
a: high

q: Class label required: CCNC(=O)c1coc(COc2ccc3c(c2)C(c2ccc(F)cc2)N(C(=O)CC(C)C)CC3)n1 (stereo unspecified)
a: low

q: In plain terms, what class is Cc1cccc2nc(NC3=NC(c4[nH]ncc4Cl)C4=C(CCCC4=O)N3)oc12 (stereo unspecified) ?
a: low

q: The entry to classify is COc1ccc(-n2nc(C3CCCN(CC4CCCCC4)C3)[nH]c2=O)cc1 (stereo unspecified) ; which class holds it?
a: high

q: Kindly state the category for this compound: "O=C(Nc1ncc(Cc2ccccc2)s1)c1ccc(-c2cccc([N+](=O)[O-])c2)o1"
a: high

q: Class for "O=S(=O)(Nc1nccs1)c1ccc(NCc2cccc(O)c2)cc1" ?
a: high

q: // bin(item) where item = "Cc1ccc(S(=O)(=O)Nc2ccccc2C(=O)Nc2ncc(-c3ccccc3)s2)cc1"
a: high

q: Determine which band this compound sits in: "CCNC(=O)C[C@@H]1N=C(c2ccc(Cl)cc2)c2cc(OC)ccc2-n2c(C)nnc21"
a: high

q: Class (by measured half-life) for CC(NCc1ccc2c(c1)nc(NC(=O)c1ccc(-c3cn[nH]c3)s1)n2CC(C)(C)O)C(C)(C)C (stereo unspecified)
a: high

q: Quick check: band for "COc1ccc(S(=O)(=O)Nc2cnccc2C(=O)Nc2nc(-c3ccccc3)cs2)cc1"
a: low

q: Band for "Cc1ccc(S(=O)(=O)N(C)c2ccccc2C(=O)Nc2nc(-c3ccccc3)cs2)cc1" ?
a: low

q: Using the reported half-life, which band applies to "COc1ccc(NC2=C(c3ccc(C(F)(F)F)cc3)C(=O)c3ccccc32)cc1" ?
a: medium

q: Which bin, given its half-life, does "O=C(Nc1cccc(C(F)(F)F)c1)C1=CCN(Cc2ccc(F)cc2)CC1" occupy?
a: medium

q: Which bin, given its half-life, does "COc1ccccc1CNC(=O)CCCn1nc(C)c2c(C)n(-c3ccc(C)cc3)nc2c1=O" occupy?
a: medium

q: Lab log: "CCOc1ccc(CCNC(=O)c2cc3sccc3n2CCN(C)C)cc1OCC" — assign half-life category
a: low

q: In plain terms, what class is CC1=C(C(=O)Nc2ccccc2)C(c2ccc[nH]2)n2ncnc2N1 (stereo unspecified) ?
a: high

q: Band for "CN1CCN(c2ccc(Nc3nn4c(=O)c5ccccc5nc4s3)cc2)CC1" ?
a: high

q: Band for the recorded half-life of "NC(=O)C1CCN(c2nc(-c3ccc4ccccc4c3)cs2)CC1" ?
a: low

q: Hi there! Could you help me figure out the category for "CC(C)(C)OC(=O)NC1CCN(c2nc(-c3ccc(Br)cc3)cs2)CC1" please?
a: high

q: Lab log: "COc1ccc(NS(=O)(=O)c2ccc(C)c(C(=O)Nc3ccc4oc(C)nc4c3)c2)cc1" — assign half-life category
a: medium

q: Assign a category based on measured half-life for "CNc1nccc(-c2cccc3ccccc23)n1" and give only the class name.
a: medium

q: Which half-life band matches "O=c1[nH]c(C2CCN(S(=O)(=O)c3ccc4c(c3)OCCO4)CC2)nc2c1nnn2Cc1c(F)cccc1Cl" ?
a: low

q: Consider "O=c1c2ccccc2nc2n1CCC2" . To which half-life class does it belong?
a: high

q: Input "Cc1ccc(S(=O)(=O)N2CCCc3cc(NS(=O)(=O)c4ccccc4)ccc32)cc1" ; output its category
a: low

q: Kindly identify the class of CCC(=O)NC(c1ccco1)c1cc(Cl)c2cccnc2c1O (stereo unspecified) .
a: medium

q: Place this compound in its band: "O=C(Nc1ccc([S+](=O)([O-])Nc2nccs2)cc1)c1ccn[nH]1"
a: high

q: Just checking, what class would you give "Cc1ccc(S(=O)(=O)Nc2ccccc2C(=O)Nc2nc(-c3ccc(Cl)cc3)cs2)cc1" here?
a: high

q: Pick a category. Item: "COC(=O)c1ccc(Nc2nc(-c3ccncc3)nc3ccccc23)cc1OC"
a: high

q: For "CCCOc1ccc2nc(NC(=O)OC)[nH]c2c1" , which half-life bin applies?
a: high

q: Please classify: "O=C(NCCCc1ccccc1)c1cccc(-c2cc(O)c3ncccc3c2)c1"
a: low

q: Record CCC(=O)NC(c1cccs1)c1cc([N+](=O)[O-])c2cccnc2c1O (stereo unspecified) — which class?
a: high

q: # classify by half-life band: "CCOc1cc(-c2nccc3cc(OC)c(OC)cc23)cc(OCC)c1OCC"
a: low

q: Pick a category. Item: "Cc1ccc(S(=O)(=O)Nc2ccccc2C(=O)Nc2ccc(-c3ccccc3)nc2)cc1"
a: low

q: Classify this compound: "COc1ccccc1-c1csc(N2CCC(C(N)=O)CC2)n1"
a: high

q: Pick a category. Item: "O=C(Nc1nnc(-c2ccc(Cl)cc2)o1)c1ccc(Cl)c(Cl)c1"
a: medium

q: Category of "Cc1ccc(-c2cc3c(nn2)-c2ccccc2C3=O)cc1" :
a: medium

q: Kindly identify the class of "Cc1ccc(-c2cc(C(=O)Nc3ccc(S(=O)(=O)Nc4ccc(C#N)cc4)cc3)c3ccccc3n2)cc1C" .
a: high

q: Bin this entry: "COc1ccc(-c2ccc(Nc3nc(-c4ccncc4)nc4ccccc34)cc2F)cc1F"
a: high

q: Which band does "COc1c(NS(=O)(=O)c2ccc(C)cc2)cccc1C(=O)Nc1nc(-c2ccccc2)cs1" fall in?
a: high

* * *

- Condition Details: rat; liver microsomes; pH 7.4; 15.0 min; 1.0 µM
Measured Quantity: half-life (min)
Please respond with the number in min and leave the unit unwritten.

q: Report measured half-life; entry is "CCn1c(=NC(=O)c2ccc(S(=O)(=O)N3CCCCC3)cc2)sc2cccc(OC)c21"
a: 9.5

q: Annotate the compound "CCCCCNc1oc(-c2cccc3ccccc23)nc1C#N" with its measured half-life.
a: 2.1

q: For the compound "CC(C)CNc1ccnc(NCc2csc(-c3ccccc3)n2)n1" , give its measured half-life value.
a: 2.07

q: Tell me its half-life given "O=[S+]([O-])(Nc1ccccc1)c1ccc(NCc2cccc(C(F)(F)F)c2F)cc1" as the entry.
a: 9

* * *

- Condition Details: rat; liver microsomes; pH 7.4; 15.0 min; 1.0 µM
Measured Quantity: half-life (min)
The answer is to be given in min; state only the numeric part.

q: For the molecule "Cc1ccc(-c2cc(C(=O)Nc3ccc(S(=O)(=O)N(C)Cc4nccs4)cc3)c3ccccc3n2)cc1C" , give its measured half-life value.
a: 4.1

q: Tell me half-life reported for "COCCNCc1ccc(-c2cc3nccc(Oc4ccc(NC(=S)NC(=O)Cc5ccc(F)cc5)cc4F)c3s2)nc1"
a: 10.3

q: Given "Cc1ccccc1-c1nc(NCc2ccc(-c3cccnc3)cc2)c2ccccc2n1" , respond with its half-life.
a: 6.25

q: Indicate the recorded half-life value for this molecule: "CCOc1ccc(CCNC(=O)c2cc3sccc3n2Cc2ccncc2)cc1OCC"
a: 1.6

q: Give the measured half-life for "Cn1nnnc1Sc1ncnc2scc(Br)c12"
a: 19.6

* * *

- Condition Details: rat; liver microsomes; pH 7.4; 15.0 min; 1.0 µM
Measured Quantity: log10 half-life (log10 of the value in min)
For clarity, the numbers are log10 values of half-life expressed in min.

q: Give the measured log10 half-life for "Cc1cc(-c2nc(Nc3ccc(F)c(F)c3)c3ccccc3n2)ccn1"
a: 1.34

q: Note down log10 half-life recorded for "CN(C(=O)COC(=O)c1csc(NCc2ccccc2)n1)c1ccccc1"
a: 0.15

q: Identify the reported log10 half-life for the following entry. "Cc1ccc(Cl)cc1NS(=O)(=O)c1cc2c(cc1F)NC(=O)CC2"
a: 0.70

q: Output measured log10 half-life for this item: Fc1cnc(-c2ccccc2C(F)F)nc1NCC1CCN(c2cnccn2)C1 (configuration not stated)
a: 0.45

q: Recall and state the measured log10 half-life for "Cc1ccc2c(c1)c(=O)c1ccccc1n2CCCC(=O)Nc1cc(Cl)ccc1C" .
a: 0.58

q: Complete the entry with log10 half-life for "Cc1ccc(S(=O)(=O)Nc2ccccc2C(=O)Nc2nccs2)cc1"
a: 0.20

q: Consider the compound CNc1nc2c(s1)C(c1ccc(Cl)cc1)CC(=O)N2 (configuration not stated) and give its recorded log10 half-life.
a: 0.32

q: Kindly indicate its recorded log10 half-life. Item: "NC(=O)C1CCN(c2ncc(-c3cccc(F)c3)s2)CC1"
a: 0.98

q: Output measured log10 half-life for this item: "O=S(=O)(Nc1cccc2cccnc12)c1ccc(NCc2ccc(Br)cc2O)cc1"
a: 0.38

q: Give log10 half-life for "CCOc1cc2c(cc1OCC)CN(C(=O)c1cc3sccc3n1Cc1ccccc1)CC2"
a: 0.45

q: Give the reported value of log10 half-life for this record: "Cc1cc(C)cc(NS(=O)(=O)c2ccc3[nH]cc(C(=O)NCc4ccco4)c(=O)c3c2)c1"
a: 0.26

q: Read off the recorded log10 half-life for Cc1ccc(-n2nc3c(N4CCCC(C(=O)NCc5ccccc5C)C4)nnc(C)c3c2C)cc1 (configuration not stated)
a: 0.32

q: For the compound O=C1CCCC2=C1C(c1ccccc1Br)N=C(Nc1nc3ccccc3o1)N2 (configuration not stated) , give its measured log10 half-life value.
a: 0.98

q: Quickly give me recorded log10 half-life for "C[C@@]1(C(=O)Nc2ccc(F)nc2)CCCN1c1nc(Nc2cc(C3CC3)[nH]n2)c2cccn2n1"
a: 0.92

q: # return recorded log10 half-life for input "CCOc1ccc(CCNC(=O)c2cc3cnccc3n2Cc2cccc(C)n2)cc1OCC"
a: 1.46

q: Specify reported log10 half-life for the compound shown: "O=S(=O)(Nc1cnc2ccccc2c1)c1ccc(NCc2cccc(Cl)c2O)cc1"
a: 1.26

q: Could you please provide reported log10 half-life for "Cc1ccccc1C(=O)N1CCc2cc(-c3nc(NC(=O)Cc4ccc5c(c4)OCCO5)sc3C)ccc21" ? Thanks!
a: 1.34

q: Respond only with log10 half-life recorded for "Cc1ccccc1C(=O)Nc1ccc2c(c1)CCCN2C(=O)c1cccs1"
a: 0.89

q: Input CC1CCc2ccc(F)cc2N1S(=O)(=O)c1cccs1 (configuration not stated) , output reported log10 half-life.
a: 0.43

q: Note log10 half-life for the compound shown: "COC(=O)[C@]12CCC(C)(C)C[C@@H]1[C@@H]1C(=O)C=C3[C@@]4(C)C=C(C#N)C(=O)C(C)(C)[C@@H]4CC[C@@]3(C)[C@]1(C)CC2"
a: 0.78

q: Output measured log10 half-life for this item: "CCN1CCN(c2ccc3cc(S(=O)(=O)N4CCOCC4)ccc3n2)CC1"
a: 1.20

q: Tell us which log10 half-life value is on record for "O=C(NCc1cccs1)c1cn2cc(-c3ccccc3)sc2n1"
a: 1.10

q: Entry CCOc1ccccc1C(=O)NC1CCN(c2cc(C)cc(C)c2)C1=O (configuration not stated) needs its log10 half-life filled in; supply it.
a: 0.95

q: Indicate the recorded log10 half-life value for this compound: Cc1ccccc1S(=O)(=O)N1CCCC(CCC(=O)NCCN(C)C2CCCCC2)C1 (configuration not stated)
a: 0.33

q: Read off the recorded log10 half-life for "CCN(CC)C(=O)N1c2ccccc2C=Cc2ccccc21"
a: 0.03

q: Read off the recorded log10 half-life for "CCOc1ccc(CCNC(=O)c2ccc(Oc3ccccc3)cc2)cc1OCC"
a: 0.28
